Exercise: state measured inhibition at 10 µM for each of the compounds provided.
# EXPERIMENTAL_SYSTEM: PRMT8 (Homo sapiens, UniProt Q9NR22)
# Construct: purchased DiscoverX BROMOscan (bromodomains); SGC in-house methyltransferase panel
# Sequence (Q9NR22 whole entry): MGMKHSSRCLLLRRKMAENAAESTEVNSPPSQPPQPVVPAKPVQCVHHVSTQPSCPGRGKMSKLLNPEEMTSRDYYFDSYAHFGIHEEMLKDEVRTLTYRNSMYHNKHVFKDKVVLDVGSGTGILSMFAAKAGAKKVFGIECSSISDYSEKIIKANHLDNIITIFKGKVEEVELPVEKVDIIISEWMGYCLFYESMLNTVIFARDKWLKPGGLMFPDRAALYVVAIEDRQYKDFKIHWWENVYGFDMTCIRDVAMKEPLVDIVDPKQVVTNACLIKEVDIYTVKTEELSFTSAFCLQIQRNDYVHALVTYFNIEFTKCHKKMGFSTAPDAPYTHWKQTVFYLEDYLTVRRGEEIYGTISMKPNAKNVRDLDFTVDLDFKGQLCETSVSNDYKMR
# PROTOCOL: Methyl transferase scintillation proximity assay
# Assay type: biochemical
# CONDITION_LABEL: average of two measurements, read-out: MTases Inhibition (%)
Note: state the figure and append the unit.

The reported PRMT8 (Homo sapiens, UniProt Q9NR22) inhibition at 10 µM of Cc1nnc2c3ccccc3c(N[C@@H](C)[C@H](c3ccccc3)N(C)C)nn12 [L-Moses] is 5%

The reported PRMT8 (Homo sapiens, UniProt Q9NR22) inhibition at 10 µM of CN1C[C@H](Nc2cnn(C)c(=O)c2Br)C[C@H](c2ccccc2)C1 [GSK4027] is 15%

The reported PRMT8 (Homo sapiens, UniProt Q9NR22) inhibition at 10 µM of Cc1c(NC(=O)c2cc(C(N)=O)nc3cc(F)ccc23)c(C(F)(F)F)nn1Cc1ccc(C#N)cc1 [BAY-876] is 9%

The reported PRMT8 (Homo sapiens, UniProt Q9NR22) inhibition at 10 µM of COc1cc(Cl)c(C(=O)N[C@@H](CN[C@H]2CC[C@@H](N)CC2)Cc2ccc(C#N)cc2)cc1-c1ccc(CN[C@H](C)c2ccc(C)cc2)o1 [BAY-850] is 4%

The reported PRMT8 (Homo sapiens, UniProt Q9NR22) inhibition at 10 µM of Cc1c(NC(=O)c2cc(C(N)=O)nc3cc(F)ccc23)c(C(F)(F)F)nn1Cc1ccc(C(C)(C)C)cc1 [BAY-588] is 3%

The reported PRMT8 (Homo sapiens, UniProt Q9NR22) inhibition at 10 µM of CN(C)CCCOc1ccc(-c2cc(NCCCn3cccn3)nc(S(C)(=O)=O)n2)cc1 [TP-238] is 3%

The reported PRMT8 (Homo sapiens, UniProt Q9NR22) inhibition at 10 µM of CO[C@H]1CNC[C@@H](OCC2CCC(F)(F)CC2)[C@@H]1Nc1ncc(-c2cncc(C)c2)c2cc(C)c(=O)[nH]c12 [GSK8814] is 5%

====

# EXPERIMENTAL_SYSTEM: TRIM33(PHD,BRD) (Homo sapiens, UniProt Q9UPN9)
# Sequence (Q9UPN9 882-1087 limits assumed): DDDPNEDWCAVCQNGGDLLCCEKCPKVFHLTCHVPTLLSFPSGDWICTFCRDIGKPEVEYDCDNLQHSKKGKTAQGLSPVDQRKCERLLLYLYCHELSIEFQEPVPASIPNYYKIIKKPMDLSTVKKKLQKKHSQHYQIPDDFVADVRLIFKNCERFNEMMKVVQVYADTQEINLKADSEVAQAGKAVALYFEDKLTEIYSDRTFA
# PROTOCOL: BROMOscan ligand-binding assay
# CONDITION_LABEL: TRIM33(PHD,Bromo.)
PROPERTY_NAME: Kd (µM)
Report only the number, with the unit µM understood.

The reported value for COc1cc2c(cc1NS(=O)(=O)c1ccc(Br)cc1C)n(C)c(=O)n2C [OF-1] in terms of Kd is 40

====

# EXPERIMENTAL_SYSTEM: BRD4(1) (Homo sapiens, UniProt O60885)
# PROTOCOL: BROMOscan ligand-binding assay
# CONDITION_LABEL: BRD4(1)
PROPERTY_NAME: pKd
Lab note — pKd values are minus log10 of concentrations in M.

The reported value for COc1cc(C#N)ccc1S(=O)(=O)Nc1ccc2c(c1)cc(C)c(=O)n2C in terms of pKd is 5.48

====

# EXPERIMENTAL_SYSTEM: UniProt Q92831
# Sequence (Q92831 723-827 limits assumed): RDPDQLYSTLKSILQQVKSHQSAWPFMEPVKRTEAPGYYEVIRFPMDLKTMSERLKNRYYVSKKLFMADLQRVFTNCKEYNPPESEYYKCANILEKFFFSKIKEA
# PROTOCOL: BROMOscan ligand-binding assay
# CONDITION_LABEL: KD, BROMOscan Gene Symbol PCAF
PROPERTY_NAME: Kd

The reported value for CCCOc1ccn2c(C(C)=O)cc(-c3ccccc3S(C)(=O)=O)c2c1 in terms of Kd is > 100 µM

====

Exercise: state measured pKd for each of the molecules provided.
# EXPERIMENTAL_SYSTEM: CECR2 (Homo sapiens)
# Sequence (Q9BXF3 434-538 limits assumed): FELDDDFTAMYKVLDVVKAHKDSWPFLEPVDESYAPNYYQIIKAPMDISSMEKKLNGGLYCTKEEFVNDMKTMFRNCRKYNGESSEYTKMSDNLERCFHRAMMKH
# PROTOCOL: BROMOscan ligand-binding assay
# CONDITION_LABEL: BROMOscan, CECR2
pKd: −log10 of the molar value.

The reported value for O=C(C=CN1[C@H]2CC[C@@H]1c1ncnc(NC3CC3)c1C2)c1ccccc1O [PFI-3 D1] in terms of pKd is < 4.52

The reported value for Cc1cc(=O)n(C)c2cc(N3C(=O)CC[C@H](NS(=O)(=O)CC(C)C)[C@H]3c3ccc(Cl)cc3)ccc12 [LP-99] in terms of pKd is < 4.30

====

Exercise: state measured Kd for each of the compounds provided.
# EXPERIMENTAL_SYSTEM: BAZ2B (Homo sapiens, UniProt Q9UIF8)
# Sequence (Q9UIF8 2060-2164 limits assumed): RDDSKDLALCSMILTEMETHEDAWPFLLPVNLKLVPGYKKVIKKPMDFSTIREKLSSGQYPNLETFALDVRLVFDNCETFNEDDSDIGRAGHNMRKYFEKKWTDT
# PROTOCOL: BROMOscan ligand-binding assay
# CONDITION_LABEL: read-out: KD (BROMOscan); sheet prints no unit (nM)

The reported value for COc1ccc(CCc2nc3cc(-c4c(C)noc4C)ccc3n2CCN2CCOCC2)cc1 in terms of Kd is > 30000 nM

The reported value for Cc1noc(C)c1-c1ccc2c(c1)nc(CCc1ccccc1)n2CCN1CCOCC1 in terms of Kd is > 30000 nM

The reported value for COc1cc(C#N)ccc1S(=O)(=O)Nc1ccc2c(c1)cc(C)c(=O)n2C in terms of Kd is 9400 nM

====

Exercise: state measured Kd for each of the compounds provided.
# EXPERIMENTAL_SYSTEM: BRD3(1) (Homo sapiens, UniProt Q15059)
# Sequence (Q15059 34-140 limits assumed): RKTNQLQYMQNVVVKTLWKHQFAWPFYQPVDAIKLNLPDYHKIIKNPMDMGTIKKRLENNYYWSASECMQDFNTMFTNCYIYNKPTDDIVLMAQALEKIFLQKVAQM
# PROTOCOL: BROMOscan ligand-binding assay
# CONDITION_LABEL: KD, BROMOscan Gene Symbol BRD3(1)
Report only the number, with the unit µM understood.

The reported value for CCCOc1ccn2c(C(C)=O)cc(-c3ccccc3S(C)(=O)=O)c2c1 [GSK2801] in terms of Kd is 34

The reported value for CCC(=O)N1CCOc2c(cc(-c3ccc(OC)c(OC)c3)cc2OCC2CCCN(C)C2)C1 (centres unmarked) [I-CBP112] in terms of Kd is 5.4

====

# EXPERIMENTAL_SYSTEM: SETD2 (Homo sapiens, UniProt Q9BYW2)
# Construct: purchased DiscoverX BROMOscan (bromodomains); SGC in-house methyltransferase panel
# Sequence (Q9BYW2 whole entry): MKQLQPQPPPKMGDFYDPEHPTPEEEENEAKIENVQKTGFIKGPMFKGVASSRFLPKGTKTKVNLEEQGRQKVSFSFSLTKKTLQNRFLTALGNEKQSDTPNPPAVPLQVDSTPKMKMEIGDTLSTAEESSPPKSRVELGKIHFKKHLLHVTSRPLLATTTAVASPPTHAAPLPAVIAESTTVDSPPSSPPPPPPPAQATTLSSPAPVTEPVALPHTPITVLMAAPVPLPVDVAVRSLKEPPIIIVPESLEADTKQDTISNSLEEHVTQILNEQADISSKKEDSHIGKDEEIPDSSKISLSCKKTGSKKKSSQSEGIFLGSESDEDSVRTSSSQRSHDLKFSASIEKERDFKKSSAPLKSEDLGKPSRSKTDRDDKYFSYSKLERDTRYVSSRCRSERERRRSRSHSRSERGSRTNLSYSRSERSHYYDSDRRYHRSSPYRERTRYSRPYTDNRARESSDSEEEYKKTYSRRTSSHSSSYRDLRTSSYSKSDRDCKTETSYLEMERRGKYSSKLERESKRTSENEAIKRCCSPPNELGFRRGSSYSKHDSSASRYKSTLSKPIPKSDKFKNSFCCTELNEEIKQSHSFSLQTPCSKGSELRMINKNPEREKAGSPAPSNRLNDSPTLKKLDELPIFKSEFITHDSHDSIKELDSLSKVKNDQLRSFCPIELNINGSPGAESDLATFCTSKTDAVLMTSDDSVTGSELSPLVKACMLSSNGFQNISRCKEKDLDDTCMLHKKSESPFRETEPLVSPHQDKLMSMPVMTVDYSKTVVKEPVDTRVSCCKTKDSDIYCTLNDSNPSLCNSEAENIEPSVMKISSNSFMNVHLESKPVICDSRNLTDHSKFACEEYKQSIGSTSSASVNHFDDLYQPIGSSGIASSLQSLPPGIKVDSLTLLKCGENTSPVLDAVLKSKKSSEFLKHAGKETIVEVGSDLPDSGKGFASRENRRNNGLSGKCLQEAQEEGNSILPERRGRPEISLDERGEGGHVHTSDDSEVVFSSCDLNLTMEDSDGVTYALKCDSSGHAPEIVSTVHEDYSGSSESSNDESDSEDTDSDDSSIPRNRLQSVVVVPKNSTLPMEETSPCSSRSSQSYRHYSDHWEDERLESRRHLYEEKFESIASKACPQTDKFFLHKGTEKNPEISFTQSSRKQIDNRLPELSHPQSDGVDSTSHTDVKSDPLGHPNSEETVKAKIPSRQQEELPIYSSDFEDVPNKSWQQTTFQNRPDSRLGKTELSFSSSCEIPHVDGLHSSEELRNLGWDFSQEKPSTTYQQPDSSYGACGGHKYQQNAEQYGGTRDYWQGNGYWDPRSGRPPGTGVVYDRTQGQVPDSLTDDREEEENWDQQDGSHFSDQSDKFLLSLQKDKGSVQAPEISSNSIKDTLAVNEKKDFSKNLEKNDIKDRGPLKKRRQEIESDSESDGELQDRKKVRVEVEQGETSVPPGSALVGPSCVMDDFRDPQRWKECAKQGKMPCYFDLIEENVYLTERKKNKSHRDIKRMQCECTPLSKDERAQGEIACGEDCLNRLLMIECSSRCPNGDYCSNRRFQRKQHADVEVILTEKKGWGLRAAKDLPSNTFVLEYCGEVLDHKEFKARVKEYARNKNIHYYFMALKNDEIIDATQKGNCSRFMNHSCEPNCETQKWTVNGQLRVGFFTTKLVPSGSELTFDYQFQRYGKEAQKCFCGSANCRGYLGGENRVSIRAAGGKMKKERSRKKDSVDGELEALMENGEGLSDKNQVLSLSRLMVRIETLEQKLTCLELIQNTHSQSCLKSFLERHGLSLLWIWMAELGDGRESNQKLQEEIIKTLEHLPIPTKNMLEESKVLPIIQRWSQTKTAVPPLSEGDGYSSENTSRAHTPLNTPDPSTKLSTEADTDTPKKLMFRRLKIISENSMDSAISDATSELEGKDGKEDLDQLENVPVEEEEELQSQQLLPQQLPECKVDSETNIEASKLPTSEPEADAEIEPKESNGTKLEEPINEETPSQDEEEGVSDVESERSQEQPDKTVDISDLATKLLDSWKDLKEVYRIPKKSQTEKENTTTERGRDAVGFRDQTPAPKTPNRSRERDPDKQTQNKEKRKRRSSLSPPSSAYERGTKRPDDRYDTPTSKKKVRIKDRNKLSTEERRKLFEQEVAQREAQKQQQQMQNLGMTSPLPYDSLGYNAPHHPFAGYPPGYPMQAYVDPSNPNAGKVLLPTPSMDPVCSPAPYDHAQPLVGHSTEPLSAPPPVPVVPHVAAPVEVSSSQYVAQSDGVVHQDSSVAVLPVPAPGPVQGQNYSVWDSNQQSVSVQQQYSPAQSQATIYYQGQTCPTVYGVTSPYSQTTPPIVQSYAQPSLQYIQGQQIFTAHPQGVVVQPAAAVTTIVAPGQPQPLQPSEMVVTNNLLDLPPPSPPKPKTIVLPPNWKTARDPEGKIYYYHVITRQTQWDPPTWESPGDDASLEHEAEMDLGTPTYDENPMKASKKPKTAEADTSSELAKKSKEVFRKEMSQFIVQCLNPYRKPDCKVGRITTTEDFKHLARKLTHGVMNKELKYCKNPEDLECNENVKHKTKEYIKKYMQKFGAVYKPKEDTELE
# PROTOCOL: Methyl transferase scintillation proximity assay
# Format: biochemical
# CONDITION_LABEL: average of two measurements, read-out: MTases Inhibition (%)
Exercise: state measured inhibition at 10 µM for each of the compounds provided.
Report only the number, with the unit % understood.

The reported value for CN(C)CCCOc1ccc(-c2cc(NCCCn3cccn3)nc(S(C)(=O)=O)n2)cc1 in terms of inhibition at 10 µM is 19

The reported value for COc1cc(Cl)c(C(=O)N[C@@H](CN[C@H]2CC[C@@H](N)CC2)Cc2ccc(C#N)cc2)cc1-c1ccc(CN[C@H](C)c2ccc(C)cc2)o1 in terms of inhibition at 10 µM is 7

The reported value for CO[C@H]1CNC[C@@H](OCC2CCC(F)(F)CC2)[C@@H]1Nc1ncc(-c2cncc(C)c2)c2cc(C)c(=O)[nH]c12 in terms of inhibition at 10 µM is 7

The reported value for Cc1c(NC(=O)c2cc(C(N)=O)nc3cc(F)ccc23)c(C(F)(F)F)nn1Cc1ccc(C#N)cc1 in terms of inhibition at 10 µM is -4

The reported value for CN1C[C@H](Nc2cnn(C)c(=O)c2Br)C[C@H](c2ccccc2)C1 in terms of inhibition at 10 µM is -1

The reported value for Cc1c(NC(=O)c2cc(C(N)=O)nc3cc(F)ccc23)c(C(F)(F)F)nn1Cc1ccc(C(C)(C)C)cc1 in terms of inhibition at 10 µM is 0

The reported value for Cc1nnc2c3ccccc3c(N[C@@H](C)[C@H](c3ccccc3)N(C)C)nn12 in terms of inhibition at 10 µM is 11

====

# EXPERIMENTAL_SYSTEM: TRIM24 (Homo sapiens)
# Sequence (O15164 899-1004 limits assumed): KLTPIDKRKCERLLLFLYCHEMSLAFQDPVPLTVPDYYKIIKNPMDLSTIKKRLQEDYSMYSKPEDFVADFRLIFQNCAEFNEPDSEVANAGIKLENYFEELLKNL
# PROTOCOL: BROMOscan ligand-binding assay
# CONDITION_LABEL: KD, TRIM24(Bromo.)
pKd: −log10 of the molar value.
PROPERTY_NAME: pKd

The reported value for O=C(C=CN1CC2CC1CN2c1ccccn1)c1ccccc1O (stereo not drawn) [PFI-3] in terms of pKd is < 4.00

The reported value for CCC(=O)N1CCOc2c(cc(-c3ccc(OC)c(OC)c3)cc2OCC2CCCN(C)C2)C1 (stereo not drawn) [I-CBP112] in terms of pKd is 4.92

The reported value for O=C(O)c1ccccc1O [Salicylic Acid] in terms of pKd is < 1.85

====

# EXPERIMENTAL_SYSTEM: BRD8(1) (Homo sapiens)
# Sequence (Q9H0E9 706-811 limits assumed): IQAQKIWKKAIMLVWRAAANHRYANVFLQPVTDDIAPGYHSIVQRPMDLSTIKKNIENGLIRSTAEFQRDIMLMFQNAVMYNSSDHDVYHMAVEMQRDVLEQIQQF
# PROTOCOL: BROMOscan ligand-binding assay
# CONDITION_LABEL: BROMOscan, BRD8(1)
pKd: −log10 of the molar value.
PROPERTY_NAME: pKd

The reported value for O=C(C=CN1[C@H]2CC[C@@H]1c1ncnc(NC3CC3)c1C2)c1ccccc1O [PFI-3 D1] in terms of pKd is < 4.52

The reported value for Cc1cc(=O)n(C)c2cc(N3C(=O)CC[C@H](NS(=O)(=O)CC(C)C)[C@H]3c3ccc(Cl)cc3)ccc12 in terms of pKd is < 4.30
